Answer each item with its documented melting point.
Give bare numbers, in °C.

# Compound, melting point / °C
rows = [
    ("CNC(=O)c1ccnc2c(-c3ccc(OCc4ccc(C(C)C)cc4)cc3)c(-c3ccncc3)nn12", 207),
]

# map each compound to its melting point
1. CC(C)c1ccc(COc2ccc(-c3c(-c4ccncc4)nn4c3N(C)C(=O)CC4)cc2)cc1
2. CC(C)c1ccc(COc2ccc(-c3c(-c4ccncc4)nn4c3NCC4)cn2)cc1
3. CC(C)c1ccc(COc2ccc(-c3c(-c4ccncn4)nn4c3NCC4)cc2)cc1
4. CC(C)c1ccc(COc2ccc(-c3c(-c4ccncc4)nn4c3NCC4)cc2)cc1
5. CCOC(=O)c1ccnc2c(-c3ccc(OCc4ccc(C(C)C)cc4)cc3)c(-c3ccncc3)nn12
6. CC(C)c1ccc(COc2ccc(-c3c(-c4ccncc4)nn4c3NCCC4CO)cc2)cc1 (centres unmarked)

Result ::
[160, 159, 109, 156, 140, 155]

The compound `CC(C)c1ccc(COc2ccc(-c3c(-c4ccncc4)nn4c3N(CCO)CC4)cc2)cc1` showed melting point equal to 151

###

Answer each item with its documented log10 of IC50.
- Target or test system: Ros1 enzyme (Homo sapiens)
- Construct: 0.5 μg/ml Ros1 enzyme
- Method notes: Ros1 enzymatic assay
- Assay type: biochemical
- Assay conditions: -log IC50 (M); 20 μM ATP, 120 min at room temperature; read-out: ROS1 pIC50 (converted)
# log10 transformed; quantity=IC50; unit=M

For orientation, consider the following solved cases.
# Molecule, log10 of IC50
records = [
    ("CC(C)c1ccc(COc2ccc(-c3c(-c4ccncc4)nn4c3NC(CO)C4)cc2)cc1 (centres unmarked) [Co. 11]", -6.60),
    ("CNC(=O)C1CCNc2c(-c3ccc(OCc4ccc(C(C)C)cc4)cc3)c(-c3ccncc3)nn21 (centres unmarked) [Co. 26]", -7.50),
    ("CC(C)c1ccc(COc2ccc(-c3c(-c4ccncc4)nn4c3NCCC4CO)cc2)cc1 (centres unmarked) [Co. 25]", -6.90),
    ("COC(=O)c1ccn2nc(-c3ccncc3)c(-c3ccc(OCc4ccc(C(C)C)cc4)cc3)c2n1 [Co. G]", -6.00),
    ("CC(C)c1ccc(COc2ccc(-c3c(-c4ccncc4)nn4c3NCCC4)c(F)c2)cc1 [Co. 18]", -7.70),
    ("CC(C)c1ccc(COc2ccc(-c3c(-c4ccncc4)nn4c3NCC4)cc2)c(F)c1F [Co. 8]", -5.80),
    ("CC(C)c1ccc(COc2ccc(-c3c(-c4ccncc4)nn4cccnc34)cc2)cc1 [Co. A]", -7.10),
]

The molecule CC(C)c1ccc(COc2ccc(-c3c(-c4ccncc4)nn4c3N(CCO)CC4)cc2)cc1 [Co. 10] showed log10 of IC50 equal to -6.90

###

- Target or test system: Ros1 enzyme (Homo sapiens, UniProt P08922)
- Construct: 0.5 μg/ml Ros1 enzyme
- Sequence (P08922 28-2347): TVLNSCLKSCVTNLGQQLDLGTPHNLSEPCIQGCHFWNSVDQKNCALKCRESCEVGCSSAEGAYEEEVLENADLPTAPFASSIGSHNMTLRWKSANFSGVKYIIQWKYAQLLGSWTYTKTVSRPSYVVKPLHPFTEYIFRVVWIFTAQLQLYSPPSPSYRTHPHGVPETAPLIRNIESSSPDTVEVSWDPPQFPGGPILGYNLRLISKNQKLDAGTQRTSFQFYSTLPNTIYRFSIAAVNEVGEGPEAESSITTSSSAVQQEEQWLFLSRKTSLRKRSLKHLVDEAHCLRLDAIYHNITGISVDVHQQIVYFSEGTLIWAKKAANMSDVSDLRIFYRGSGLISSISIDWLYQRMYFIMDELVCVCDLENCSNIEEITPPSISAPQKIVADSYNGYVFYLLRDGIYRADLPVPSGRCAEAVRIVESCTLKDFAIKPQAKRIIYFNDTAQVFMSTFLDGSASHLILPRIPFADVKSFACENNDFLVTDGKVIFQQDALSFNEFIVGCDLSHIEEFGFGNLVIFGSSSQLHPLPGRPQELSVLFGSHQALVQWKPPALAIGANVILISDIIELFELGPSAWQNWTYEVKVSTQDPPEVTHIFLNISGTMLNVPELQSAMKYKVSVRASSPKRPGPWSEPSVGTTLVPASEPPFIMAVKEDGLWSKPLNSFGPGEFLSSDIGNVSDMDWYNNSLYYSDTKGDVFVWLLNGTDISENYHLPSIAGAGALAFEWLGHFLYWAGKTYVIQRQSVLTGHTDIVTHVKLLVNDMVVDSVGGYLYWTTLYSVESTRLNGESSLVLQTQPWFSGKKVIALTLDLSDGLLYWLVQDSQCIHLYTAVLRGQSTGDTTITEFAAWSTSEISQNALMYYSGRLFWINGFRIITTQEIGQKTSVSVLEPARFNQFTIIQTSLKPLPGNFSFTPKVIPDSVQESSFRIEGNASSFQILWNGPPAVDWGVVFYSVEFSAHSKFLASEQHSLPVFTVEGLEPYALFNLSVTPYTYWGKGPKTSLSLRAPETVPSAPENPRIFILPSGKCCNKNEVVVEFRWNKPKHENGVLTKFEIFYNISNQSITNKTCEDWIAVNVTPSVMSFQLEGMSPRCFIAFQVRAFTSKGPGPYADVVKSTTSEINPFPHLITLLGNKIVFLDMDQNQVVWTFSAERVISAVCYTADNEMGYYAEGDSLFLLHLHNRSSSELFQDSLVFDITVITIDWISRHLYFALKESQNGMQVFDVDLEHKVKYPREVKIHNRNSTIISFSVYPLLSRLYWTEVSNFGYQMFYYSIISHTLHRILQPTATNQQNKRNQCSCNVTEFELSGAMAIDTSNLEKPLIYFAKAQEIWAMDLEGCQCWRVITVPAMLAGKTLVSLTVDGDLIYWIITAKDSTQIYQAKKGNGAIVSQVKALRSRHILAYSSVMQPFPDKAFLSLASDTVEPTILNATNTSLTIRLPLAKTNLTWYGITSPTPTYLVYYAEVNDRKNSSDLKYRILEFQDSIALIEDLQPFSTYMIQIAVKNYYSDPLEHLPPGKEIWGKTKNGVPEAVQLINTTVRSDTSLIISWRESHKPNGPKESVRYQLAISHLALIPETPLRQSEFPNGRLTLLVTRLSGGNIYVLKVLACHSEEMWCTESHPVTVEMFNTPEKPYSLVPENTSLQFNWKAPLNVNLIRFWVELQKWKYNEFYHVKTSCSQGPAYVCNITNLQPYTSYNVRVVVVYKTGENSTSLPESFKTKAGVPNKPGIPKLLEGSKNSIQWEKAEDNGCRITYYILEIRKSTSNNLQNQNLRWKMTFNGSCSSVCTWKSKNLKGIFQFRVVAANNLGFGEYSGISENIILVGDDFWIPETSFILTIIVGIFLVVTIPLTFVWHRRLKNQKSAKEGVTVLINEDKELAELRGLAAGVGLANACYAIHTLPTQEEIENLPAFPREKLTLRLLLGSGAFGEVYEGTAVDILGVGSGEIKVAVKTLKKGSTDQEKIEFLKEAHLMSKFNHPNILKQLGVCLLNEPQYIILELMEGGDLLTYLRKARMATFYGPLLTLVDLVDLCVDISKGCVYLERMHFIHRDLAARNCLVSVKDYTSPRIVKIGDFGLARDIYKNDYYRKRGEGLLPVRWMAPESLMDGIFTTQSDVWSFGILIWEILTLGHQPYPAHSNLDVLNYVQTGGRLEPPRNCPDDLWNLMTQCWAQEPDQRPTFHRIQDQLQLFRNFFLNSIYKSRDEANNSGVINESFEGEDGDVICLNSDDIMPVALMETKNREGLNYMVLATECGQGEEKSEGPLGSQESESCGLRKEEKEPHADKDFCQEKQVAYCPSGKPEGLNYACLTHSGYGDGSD
- Method notes: Ros1 enzymatic assay
- Assay type: biochemical
- Assay conditions: -log IC50 (M); 20 μM ATP, 120 min at room temperature; read-out: ROS1 pIC50 (converted)
- Method: Compounds were spotted onto white 384-well Proxiplate plus plates (Perkin Elmer) to which 5 μl of enzyme mix (0.5 μg/ml Ros1 enzyme, 50 mM Tris-HCl pH7.5, 1 mM EGTA, 10 mM MgCl2, 0.01% Tween-20) and 5 μl of substrate mix (6 μg/ml IRS-Tide [American Peptide Company], 20 μM ATP, 13.33 μCi/ml ATP (adenosine 5′-triphosphate) P^33, 50 mM Tris-HCl pH7.5, 1 mM EGTA (ethylene glycol-bis(2-aminoethylether)-N,N,N′,N′-tetraacetic acid), 10 mM MgCl2, 0.01% Tween-20) were added. […]
Readout name: IC50 (M)
Numbers only, in M.

For orientation, consider the following solved cases.
# Molecule, IC50, M
rows = [
    ("CC(C)c1ccc(COc2ccc(-c3c(-c4ccncc4)nn4c3NC(CO)CC4)c(F)c2)cc1 (centres unmarked)", "3.16e-08"),
    ("CC(C)c1ccc(COc2ccc(-c3c(-c4ccncc4)nn4c3N(C)CCC4)cc2)cc1", "1e-07"),
    ("CC(C)c1ccc(COc2ccc(-c3c(-c4ccncc4)nn4c3NCC4)cc2)cc1CC(O)CO (centres unmarked)", "6.31e-08"),
]

# map each molecule to its IC50
1. Cc1ccn2nc(-c3ccncc3)c(-c3ccc(OCc4ccc(C(C)C)cc4)cc3F)c2n1
2. c1cc(-c2nn3c(c2-c2ccc(OCc4ccc(C5CC5)cc4)cc2)NCC3)ccn1
3. CNCC1CCNc2c(-c3ccc(OCc4ccc(C(C)C)cc4)cc3)c(-c3ccncc3)nn21 (centres unmarked)

Result ::
1. 3.16e-08
2. 2.51e-07
3. 5.01e-07

# map each molecule to its IC50
1. CC(C)c1ccc(COc2ccc(-c3c(-c4ccncc4)nn4c3N(CCO)CCC4)cc2)cc1
2. CC(C)c1ccc(COc2cc(F)c(-c3c(-c4ccncc4)nn4c3NCC4)cc2F)cc1

Result ::
6.31e-08
2.51e-08

###

- Target or test system: Ba/F3 cells containing Ros1 wild-type protein (Homo sapiens, UniProt P08922, cells depend on it, form not given)
- Method notes: Ba/F3-Ros1 cell proliferation assay, wild-type Ros1, without IL-3
- Type: cell-based, murine
- Assay conditions: -log IC50 (M); wild-type Ros1, no IL-3, 24 h, Alamar Blue
Readout name: BaF3-ROS1 − IL3 pIC50

For orientation, consider the following solved cases.
# Compound, Readout name, Result
records = [
    ("CC(C)c1ccc(COc2ccc(-c3c(-c4ccncc4)nn4c3NC(CO)CC4)c(F)c2)cc1 (stereo not shown)", "BaF3-ROS1 − IL3 pIC50", 7.9),
    ("CC(C)c1ccc(COc2ccc(-c3c(-c4ccncc4)nn4c3NCC4)cc2)cc1C#N", "BaF3-ROS1 − IL3 pIC50", 6.7),
    ("CC(C)c1ccc(COc2ccc(-c3c(-c4ccncc4)nn4c3NCCC4)cc2)cc1", "BaF3-ROS1 − IL3 pIC50", 7.1),
]

Please look at the following compound next.
The compound `COC(=O)c1ccn2nc(-c3ccncc3)c(-c3ccc(OCc4ccc(C(C)C)cc4)cc3)c2n1` showed BaF3-ROS1 − IL3 pIC50 equal to <5

###

- Target or test system: Ba/F3 cells containing Ros1 L2026M (Homo sapiens, UniProt P08922, L2026M, cells depend on it, form not given)
- Sequence (P08922 whole entry L2026M, form open): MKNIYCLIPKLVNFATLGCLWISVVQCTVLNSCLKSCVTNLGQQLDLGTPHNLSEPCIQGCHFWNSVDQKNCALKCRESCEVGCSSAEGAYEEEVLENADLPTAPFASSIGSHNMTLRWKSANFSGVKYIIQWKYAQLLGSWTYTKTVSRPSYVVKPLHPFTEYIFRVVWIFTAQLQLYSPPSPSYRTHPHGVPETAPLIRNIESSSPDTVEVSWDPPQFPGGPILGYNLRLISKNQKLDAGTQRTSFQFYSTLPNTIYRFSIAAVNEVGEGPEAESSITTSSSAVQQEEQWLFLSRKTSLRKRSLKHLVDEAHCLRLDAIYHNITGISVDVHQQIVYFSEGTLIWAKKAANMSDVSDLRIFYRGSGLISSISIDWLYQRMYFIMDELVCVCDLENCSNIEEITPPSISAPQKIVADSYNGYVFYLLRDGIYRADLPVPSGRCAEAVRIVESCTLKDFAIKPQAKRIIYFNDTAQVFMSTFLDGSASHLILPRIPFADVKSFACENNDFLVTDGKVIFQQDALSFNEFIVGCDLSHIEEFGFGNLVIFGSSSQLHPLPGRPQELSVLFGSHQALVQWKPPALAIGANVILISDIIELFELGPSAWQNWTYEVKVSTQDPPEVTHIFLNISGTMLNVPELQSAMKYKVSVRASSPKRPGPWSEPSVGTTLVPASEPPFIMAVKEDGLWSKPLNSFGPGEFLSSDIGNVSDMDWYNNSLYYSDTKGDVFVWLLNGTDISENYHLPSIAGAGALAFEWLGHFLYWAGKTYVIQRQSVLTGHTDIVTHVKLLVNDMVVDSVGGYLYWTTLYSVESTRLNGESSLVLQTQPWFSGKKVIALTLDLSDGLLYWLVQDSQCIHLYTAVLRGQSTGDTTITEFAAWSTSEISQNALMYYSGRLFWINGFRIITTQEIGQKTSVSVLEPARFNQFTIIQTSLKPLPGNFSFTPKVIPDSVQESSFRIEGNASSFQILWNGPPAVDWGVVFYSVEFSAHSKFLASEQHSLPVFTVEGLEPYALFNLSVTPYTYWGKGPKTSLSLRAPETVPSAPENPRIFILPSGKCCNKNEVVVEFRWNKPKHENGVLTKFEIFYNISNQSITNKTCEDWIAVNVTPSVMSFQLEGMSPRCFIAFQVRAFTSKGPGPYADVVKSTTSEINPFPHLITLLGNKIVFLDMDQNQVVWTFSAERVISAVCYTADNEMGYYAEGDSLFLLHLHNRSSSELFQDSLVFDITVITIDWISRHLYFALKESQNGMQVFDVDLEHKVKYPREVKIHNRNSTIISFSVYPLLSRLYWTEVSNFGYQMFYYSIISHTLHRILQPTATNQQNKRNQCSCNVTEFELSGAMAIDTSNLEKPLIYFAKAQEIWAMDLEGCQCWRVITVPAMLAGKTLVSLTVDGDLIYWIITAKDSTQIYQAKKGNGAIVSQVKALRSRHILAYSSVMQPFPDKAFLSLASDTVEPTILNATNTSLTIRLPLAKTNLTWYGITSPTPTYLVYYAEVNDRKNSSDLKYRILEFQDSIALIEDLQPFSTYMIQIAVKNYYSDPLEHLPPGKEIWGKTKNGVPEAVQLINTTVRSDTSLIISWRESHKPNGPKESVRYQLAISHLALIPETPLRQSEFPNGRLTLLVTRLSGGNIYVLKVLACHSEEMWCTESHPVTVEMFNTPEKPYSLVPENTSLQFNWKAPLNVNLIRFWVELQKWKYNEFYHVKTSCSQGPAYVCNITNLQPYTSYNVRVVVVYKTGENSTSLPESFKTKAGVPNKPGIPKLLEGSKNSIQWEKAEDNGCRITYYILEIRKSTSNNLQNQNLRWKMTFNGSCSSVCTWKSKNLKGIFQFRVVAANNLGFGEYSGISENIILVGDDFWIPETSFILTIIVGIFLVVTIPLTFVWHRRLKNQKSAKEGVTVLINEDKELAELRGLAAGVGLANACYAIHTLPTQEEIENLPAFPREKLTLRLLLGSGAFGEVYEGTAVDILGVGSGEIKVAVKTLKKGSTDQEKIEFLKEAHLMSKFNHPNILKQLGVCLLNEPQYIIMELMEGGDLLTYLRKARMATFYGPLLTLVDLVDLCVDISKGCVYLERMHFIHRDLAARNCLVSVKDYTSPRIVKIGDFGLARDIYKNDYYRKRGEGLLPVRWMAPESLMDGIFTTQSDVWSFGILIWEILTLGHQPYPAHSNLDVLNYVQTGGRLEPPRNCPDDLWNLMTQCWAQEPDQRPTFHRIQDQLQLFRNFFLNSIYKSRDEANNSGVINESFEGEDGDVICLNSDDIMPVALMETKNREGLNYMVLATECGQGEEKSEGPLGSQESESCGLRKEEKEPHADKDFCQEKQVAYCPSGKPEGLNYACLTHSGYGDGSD
- Method notes: Ba/F3-Ros1 cell proliferation assay, L2026M gatekeeper mutant
- Type: cell-based, murine
- Assay conditions: -log IC50 (M), no IL-3
Readout name: Ba/F3 Ros1 L2026M (-IL-3) pIC50
One number for each entry.

# map each molecule to its Ba/F3 Ros1 L2026M (-IL-3) pIC50
1. CC(C)c1ccc(COc2ccc(-c3c(-c4ccncc4)nn4c3NC(CO)C4)cc2)cc1 (centres unmarked)
2. CNCC1CCNc2c(-c3ccc(OCc4ccc(C(C)C)cc4)cc3)c(-c3ccncc3)nn21 (centres unmarked)
3. CC(C)c1ccc(COc2ccc(-c3c(-c4ccncc4)nn4c3NC(CO)CC4)cc2)cc1 (centres unmarked)
4. CC(C)c1ccc(COc2ccc(-c3c(-c4ccncc4)nn4c3NC(=O)CC4)cc2)cc1
5. CC(C)c1ccc(COc2ccc(-c3c(-c4ccncc4)nn4c3NCC4)cc2)cc1CC(O)CO (centres unmarked)
6. CC(C)c1ccc(COc2ccc(-c3c(-c4ccncc4)nn4c3N(C)CCC4)cc2)cc1

Result ::
6.8
5.5
7.6
7.3
5.5
6.4

# map each molecule to its Ba/F3 Ros1 L2026M (-IL-3) pIC50
1. CC(C)c1ccc(COc2ccc(-c3c(-c4ccncc4)nn4c3NC(CO)CC4)c(F)c2)cc1 (centres unmarked)
2. CC(C)c1ccc(COc2ccc(-c3c(-c4ccncc4)nn4c3NC(=O)C4)cc2)cc1
3. CC(C)c1ccc(COc2ccc(-c3c(-c4ccncc4)nn4c3NCC4)c(C#N)c2)cc1
4. CC(C)c1ccc(COc2ccc(-c3c(-c4ccncc4)nn4c3NCCC4)cc2)cc1

Result ::
1. 7.8
2. 6.7
3. 6.6
4. 6.9

###

- Target or test system: Ba/F3 cells containing Ros1 wild-type protein (Homo sapiens, UniProt P08922, cells depend on it, form not given)
- Method notes: Ba/F3-Ros1 cell proliferation assay, wild-type Ros1, without IL-3
- Format: cell-based, murine
- Assay conditions: -log IC50 (M); wild-type Ros1, no IL-3, 24 h, Alamar Blue
Readout name: BaF3-ROS1 − IL3 pIC50
One number for each entry.

# Compound, BaF3-ROS1 − IL3 pIC50
records = [
    ("CC(C)c1ccc(COc2ccc(-c3c(-c4ccncc4)nn4c3NC(=O)CC4)cc2)cc1 [Co. 16]", 7.0),
    ("c1cc(-c2nn3c(c2-c2ccc(OCc4ccc(C5CC5)cc4)cc2)NCC3)ccn1 [Co. 7]", 6.8),
    ("CC(C)c1ccc(COc2ccc(-c3c(-c4ccncc4)nn4cccnc34)c(F)c2)cc1 [Co. B]", 7.2),
    ("CC(C)c1ccc(COc2ccc(-c3c(-c4ccncn4)nn4c3NCC4)cc2)cc1 [Co. 14]", 6.5),
]

# map each compound to its BaF3-ROS1 − IL3 pIC50
1. CC(C)c1ccc(COc2ccc(-c3c(-c4ccncn4)nn4c3NCC4)c(F)c2)cc1 [Co. 15]
2. CC(C)c1ccc(COc2ccc(-c3c(-c4ccncc4)nn4c3NCCC4CO)cc2)cc1 (centres unmarked) [Co. 25]
3. CC(C)c1ccc(COc2ccc(-c3c(-c4ccncc4)nn4c3NC(CO)CC4)cc2)cc1 (centres unmarked) [Co. 24]
4. CC(C)c1ccc(COc2ccc(-c3c(-c4ccncc4)nn4c3N(CCO)CCC4)cc2)cc1 [Co. 21]

Result ::
[6.8, 7.0, 7.5, 7.4]
